Values compiled from patent US10308658B2.

test: Pharmacokinetic assay in beagle dogs
Type: in vivo
study_conditions: dog, in vivo, oral, capsule, 5 mg/kg as compound of Formula (II)
metric_name: AUC(0-inf) (ng·h/mL)
Report as a plain number; the unit ng·h/mL is understood.

Lookup: Specify reported AUC(0-inf) for the molecule shown: COc1cc2ncnc(Nc3ccc(F)c(Cl)c3)c2cc1OCCCN1C[C@@H]2OCCO[C@@H]2C1 [Compound of Formula (II)]
Found: 886

# next molecule below
Lookup: Specify reported AUC(0-inf) for the molecule shown: COc1cc2ncnc(Nc3ccc(F)c(Cl)c3)c2cc1OCCCN1C[C@@H]2OCCO[C@@H]2C1.CS(=O)(=O)O.CS(=O)(=O)O.O [Crystalline form I]
Found: 1470

----------
test: Pharmacokinetic assay in beagle dogs
Assay type: in vivo
study_conditions: dog, in vivo, oral, capsule, 5 mg/kg as compound of Formula (II)
metric_name: half-life (min)
Report as a plain number; the unit min is understood.

Lookup: Specify reported half-life for the compound shown: COc1cc2ncnc(Nc3ccc(F)c(Cl)c3)c2cc1OCCCN1C[C@@H]2OCCO[C@@H]2C1 [Compound of Formula (II)]
Found: 217

# next compound below
Lookup: Specify reported half-life for the compound shown: COc1cc2ncnc(Nc3ccc(F)c(Cl)c3)c2cc1OCCCN1C[C@@H]2OCCO[C@@H]2C1.CS(=O)(=O)O.CS(=O)(=O)O.O [Crystalline form I]
Found: 219

----------
test: Pharmacokinetic assay in beagle dogs
Format: in vivo
study_conditions: dog, in vivo, oral, capsule, 5 mg/kg as compound of Formula (II)
Experimental: The pharmacokinetic properties of the compound of Formula (II) and crystalline form I of the invention were assessed in beagle dogs: each group having 3 beagle dogs was administered by oral in a capsule form. The dosage amount of crystalline form I was converted and determined according to the compound of Formula (II) at a dosage of 5 mg/kg.
Measured Tmax, listed per entry for reference.
Report as a plain number; the unit h is understood.

Lookup: Specify reported Tmax for the molecule shown: COc1cc2ncnc(Nc3ccc(F)c(Cl)c3)c2cc1OCCCN1C[C@@H]2OCCO[C@@H]2C1 [Compound of Formula (II)]
Found: 1.67

# next molecule below
Lookup: Specify reported Tmax for the molecule shown: COc1cc2ncnc(Nc3ccc(F)c(Cl)c3)c2cc1OCCCN1C[C@@H]2OCCO[C@@H]2C1.CS(=O)(=O)O.CS(=O)(=O)O.O [Crystalline form I]
Found: 1.33

----------
test: Pharmacokinetic assay in beagle dogs
Format: in vivo
study_conditions: dog, in vivo, oral, capsule, 5 mg/kg as compound of Formula (II)
Measured Cmax, listed per entry for reference.
Please make sure the unit comes right after the number.

Lookup: Specify reported Cmax for the compound shown: COc1cc2ncnc(Nc3ccc(F)c(Cl)c3)c2cc1OCCCN1C[C@@H]2OCCO[C@@H]2C1 [Compound of Formula (II)]
Found: 125 ng/mL

---
Lookup: Specify reported Cmax for the compound shown: COc1cc2ncnc(Nc3ccc(F)c(Cl)c3)c2cc1OCCCN1C[C@@H]2OCCO[C@@H]2C1.CS(=O)(=O)O.CS(=O)(=O)O.O [Crystalline form I]
Found: 231 ng/mL

----------
Measured AUC(0-t), listed per entry for reference.
test: Pharmacokinetic assay in beagle dogs
Format: in vivo
study_conditions: dog, in vivo, oral, capsule, 5 mg/kg as compound of Formula (II)
Please make sure the unit comes right after the number.

Lookup: Specify reported AUC(0-t) for the compound shown: COc1cc2ncnc(Nc3ccc(F)c(Cl)c3)c2cc1OCCCN1C[C@@H]2OCCO[C@@H]2C1
Found: 825 ng·h/mL

# next compound below
Lookup: Specify reported AUC(0-t) for the compound shown: COc1cc2ncnc(Nc3ccc(F)c(Cl)c3)c2cc1OCCCN1C[C@@H]2OCCO[C@@H]2C1.CS(=O)(=O)O.CS(=O)(=O)O.O [Crystalline form I]
Found: 1450 ng·h/mL
